tested on: NCI-H1734; experiment: relative viability (nuclei count vs DMSO), 5 days (fraction); higher = more cells survive; conditions: first compound 2.53 µM
Field 'label' (enum: Satisfied / Not satisfied). Set to Satisfied when relative viability is strictly under 0.2; else Not satisfied.

Worked cases, answers included:
| molecule | class |
| --- | --- |
| Oc1nc(-c2ccc(C(F)(F)F)cc2)nc2c1CSCC2 [XAV939] + CCNC(=O)c1noc(-c2cc(C(C)C)c(O)cc2O)c1-c1ccc(CN2CCOCC2)cc1 [Luminespib] (partner 0.01 µM) | Satisfied |
| C=C1C(=O)O[C@@H](CCCCCCCC)[C@@H]1C(=O)O [C-75] + Nc1nc2[nH]cc(CCc3ccc(C(=O)N[C@@H](CCC(=O)O)C(=O)O)cc3)c2c(=O)[nH]1 [Pemetrexed] (partner 0.2 µM) | Not satisfied |
| Oc1nc(-c2ccc(C(F)(F)F)cc2)nc2c1CSCC2 [XAV939] + NC(=O)Nc1cc(-c2cccc(F)c2)sc1C(=O)N[C@H]1CCCNC1 [AZD7762] (partner 0.2 µM) | Not satisfied |

hey, is relative viability for Oc1nc(-c2ccc(C(F)(F)F)cc2)nc2c1CSCC2 [XAV939] + Cc1nc(Nc2ncc(C(=O)Nc3c(C)cccc3Cl)s2)cc(N2CCN(CCO)CC2)n1 [Dasatinib] (partner 0.075 µM) lower than 0.2 or not? Not satisfied

hey, is relative viability for C=C1C(=O)O[C@@H](CCCCCCCC)[C@@H]1C(=O)O [C-75] + CCNC(=O)c1noc(-c2cc(C(C)C)c(O)cc2O)c1-c1ccc(CN2CCOCC2)cc1 [Luminespib] (partner 0.01 µM) lower than 0.2 or not? Satisfied

* * *

For each record, write down the corresponding relative viability.
system: SK-MES-1; assay: relative viability (nuclei count vs DMSO), 5 days (fraction); higher = more cells survive; details: first compound 0.03162 µM
Give bare numbers.

Guide cases for relative viability, answers given:
| compound | measure | readoutValue |
| --- | --- | --- |
| NC(=O)Nc1cc(-c2cccc(F)c2)sc1C(=O)N[C@H]1CCCNC1 [AZD7762] + CCNC(=O)c1noc(-c2cc(C(C)C)c(O)cc2O)c1-c1ccc(CN2CCOCC2)cc1 [Luminespib] (partner 0.01 µM) | relative viability | 0.715 |
| NC(=O)Nc1cc(-c2cccc(F)c2)sc1C(=O)N[C@H]1CCCNC1 [AZD7762] + N=C(N)NC(=N)NCCc1ccccc1 [Phenformin] (partner 250 µM) | relative viability | 0.663 |

// Input: NC(=O)Nc1cc(-c2cccc(F)c2)sc1C(=O)N[C@H]1CCCNC1 [AZD7762] + CC(=O)c1c(C)c2cnc(Nc3ccc(N4CCNCC4)cn3)nc2n(C2CCCC2)c1=O [Palbociclib] (partner 0.5 µM) . Output its relative viability only. 0.337

* * *

For each record, write down the corresponding relative viability.
system: NCI-H322M; test: relative viability (nuclei count vs DMSO), 5 days (fraction); higher = more cells survive; settings: first compound 0.01581 µM
One number for each entry.

Guide cases for relative viability, answers given:
| compound | relative viability |
| --- | --- |
| CC1(C)CCC(c2ccc(Cl)cc2)=C(CN2CCN(c3ccc(C(=O)NS(=O)(=O)c4ccc(N[C@H](CCN5CCOCC5)CSc5ccccc5)c(S(=O)(=O)C(F)(F)F)c4)cc3)CC2)C1 [Navitoclax] + C[C@@H](Oc1cc(-c2cnn(C3CCNCC3)c2)cnc1N)c1c(Cl)ccc(F)c1Cl [Crizotinib] (partner 1 µM) | 0.954 |
| CC1(C)CCC(c2ccc(Cl)cc2)=C(CN2CCN(c3ccc(C(=O)NS(=O)(=O)c4ccc(N[C@H](CCN5CCOCC5)CSc5ccccc5)c(S(=O)(=O)C(F)(F)F)c4)cc3)CC2)C1 [Navitoclax] + Cc1nc(Nc2ncc(C(=O)Nc3c(C)cccc3Cl)s2)cc(N2CCN(CCO)CC2)n1 [Dasatinib] (partner 0.075 µM) | 0.24 |
| CC1(C)CCC(c2ccc(Cl)cc2)=C(CN2CCN(c3ccc(C(=O)NS(=O)(=O)c4ccc(N[C@H](CCN5CCOCC5)CSc5ccccc5)c(S(=O)(=O)C(F)(F)F)c4)cc3)CC2)C1 [Navitoclax] + N=C(N)NC(=N)NCCc1ccccc1 [Phenformin] (partner 250 µM) | 0.923 |

Okay, next one:
// Input: CC1(C)CCC(c2ccc(Cl)cc2)=C(CN2CCN(c3ccc(C(=O)NS(=O)(=O)c4ccc(N[C@H](CCN5CCOCC5)CSc5ccccc5)c(S(=O)(=O)C(F)(F)F)c4)cc3)CC2)C1 [Navitoclax] + Nc1ncn([C@H]2C[C@H](O)[C@@H](CO)O2)c(=O)n1 [Decitabine] (partner 2 µM) . Output its relative viability only. 0.863
